FYI, the data here is from PubChem BioAssay (EPA / NIEHS).

TEST: ATG_Ets_CIS: Attagene CIS-FACTORIAL HepG2 Assay for human Erythroblast Transformation Specific (ETS) (AID 2282941)
CONDITION_DETAILS: HepG2 ETS cis-reporter transcription, actives raise or lower the signal
Active and inactive are the calls of the source. The calls were made as follows: active = hit-call score of the fitted dose curve at least 0.9, where 1 is the maximum; inactive = score below 0.9.
One label from this list, please: T for active, F for inactive

Q: Just curious, what result did `CCN(CC)c1ccc2c(c1)Oc1cc(N(CC)CC)ccc1C21OC(=O)c2ccccc21` get here?
Ans: F

Q: Just curious, what result did `Cc1cc(=O)[nH]c(C(C)C)n1` get here?
Ans: F

Q: Just curious, what result did `Nc1cccnc1N` get here?
Ans: F

Q: Just curious, what result did `O=C1OC(=O)c2ccc3c4c(ccc1c24)C(=O)OC3=O` get here?
Ans: F

Q: Just curious, what result did `CC1CCCCC1` get here?
Ans: F

Q: Just curious, what result did `CNS(=O)(=O)C(F)(F)C(F)(F)C(F)(F)C(F)(F)C(F)(F)C(F)(F)C(F)(F)C(F)(F)F` get here?
Ans: F

Q: Just curious, what result did `CCCCOC(=O)[C@H](C)O` get here?
Ans: F

Q: Just curious, what result did `FC(F)(F)C(F)(F)C(F)(F)C(F)(F)C(F)(F)C(F)(F)C(F)(F)CCI` get here?
Ans: F

Q: Just curious, what result did `CN(N=O)C(=O)N[C@@H]1[C@@H](O)[C@H](O)[C@@H](CO)O[C@@H]1O` get here?
Ans: F

Q: Just curious, what result did `N#Cc1ccccc1O` get here?
Ans: F

Q: Just curious, what result did `Cc1ccc(S(=O)(=O)C(I)I)cc1` get here?
Ans: T

Q: Just curious, what result did `O=C(F)C1(F)C(F)(F)C(F)(F)C(F)(F)C(F)(F)C1(F)F` get here?
Ans: F

Q: Just curious, what result did `NC(=O)C(F)(F)C(F)(F)C(F)(F)C(F)F` get here?
Ans: F

Q: Just curious, what result did `CN(C)C(C)(C)CO` get here?
Ans: F

Q: Just curious, what result did CCCCOC(=O)C(C)O (stereo unspecified) get here?
Ans: F

Q: Just curious, what result did `CCCCCCCCCc1ccc(OCCO)cc1` get here?
Ans: T

Q: Just curious, what result did `O=C1C=CC(=O)N1c1ccc(Cc2ccc(N3C(=O)C=CC3=O)cc2)cc1` get here?
Ans: F

Q: Just curious, what result did `CC(C)(C)c1cc(CCC(=O)NCCCCCCNC(=O)CCc2cc(C(C)(C)C)c(O)c(C(C)(C)C)c2)cc(C(C)(C)C)c1O` get here?
Ans: F

Q: Just curious, what result did `OCCCCl` get here?
Ans: F

Q: Just curious, what result did `OCCCc1cccnc1` get here?
Ans: F

Q: Just curious, what result did `CCCCCCCCn1sc(Cl)c(Cl)c1=O` get here?
Ans: T

###

TEST: ATG_MRE_CIS: Attagene CIS-FACTORIAL HepG2 Assay for human Metal Responsive Element (MRE) (AID 2282954)
CONDITION_DETAILS: HepG2 MRE cis-reporter transcription, Attagene multiplex; actives raise or lower the signal
Calls of active or inactive are those of the source. The calls were made as follows: active = hit-call score of the fitted dose curve at least 0.9, where 1 is the maximum; inactive = score below 0.9.
One label from this list, please: 1.0 = active, 0.0 = inactive

Q: Just curious, what result did `Brc1ccccn1` get here?
Ans: 0.0

Q: Just curious, what result did OCC(O)CC(F)(F)C(F)(F)C(F)(F)C(F)(F)C(F)(F)C(F)(F)C(F)(F)C(F)(F)F (stereo not drawn) get here?
Ans: 0.0

Q: Just curious, what result did `NS(=O)(=O)C(F)(F)C(F)(F)C(F)(F)C(F)(F)C(F)(F)C(F)(F)F` get here?
Ans: 1.0

Q: Just curious, what result did `CCCCCCCCCCCCCC[P+](CCCC)(CCCC)CCCC` get here?
Ans: 1.0

Q: Just curious, what result did `Cc1ccc(S(=O)(=O)C(I)I)cc1` get here?
Ans: 1.0

Q: Just curious, what result did CC(C)CCCC(C)CCO (stereo not drawn) get here?
Ans: 0.0

Q: Just curious, what result did `CSc1ccc(O)cc1C` get here?
Ans: 0.0

Q: Just curious, what result did `CCn1c2ccccc2c2ccccc21` get here?
Ans: 1.0

Q: Just curious, what result did `Cc1cc(=O)[nH]c(C(C)C)n1` get here?
Ans: 0.0

Q: Just curious, what result did `COCCOCCC[Si](C)(O[Si](C)(C)C)O[Si](C)(C)C` get here?
Ans: 0.0

Q: Just curious, what result did `CCN(CC)c1ccc(N=Nc2ccccc2)cc1` get here?
Ans: 1.0

Q: Just curious, what result did `Cc1cc(O)c(C(C)(C)C)cc1C(C)(C)C` get here?
Ans: 1.0

Q: Just curious, what result did `CN(N=O)C(=O)N[C@@H]1[C@@H](O)[C@H](O)[C@@H](CO)O[C@@H]1O` get here?
Ans: 0.0

Q: Just curious, what result did `C=CC(=O)OCC(F)(F)C(F)(F)C(F)(F)COC(=O)C=C` get here?
Ans: 1.0

Q: Just curious, what result did `Cc1cc(C)c(O)c(C(C)(C)C)c1` get here?
Ans: 0.0

Q: Just curious, what result did `CCN(CC)c1ccc2c(c1)Oc1cc(N(CC)CC)ccc1C21OC(=O)c2ccccc21` get here?
Ans: 0.0

Q: Just curious, what result did `CCN(CC)c1ccc(C=O)c(O)c1` get here?
Ans: 1.0

Q: Just curious, what result did `O=S(=O)(O)CCC(F)(F)C(F)(F)C(F)(F)C(F)(F)C(F)(F)C(F)(F)C(F)(F)C(F)(F)F` get here?
Ans: 0.0

Q: Just curious, what result did `FC(F)(F)C(F)(F)C(F)(F)C(F)(F)C(F)(F)C(F)(F)CC[Si](Cl)(Cl)Cl` get here?
Ans: 0.0

Q: Just curious, what result did `C=CCOC(=O)CC(C)C` get here?
Ans: 0.0

Q: Just curious, what result did `C=CC(=O)OCCC(F)(F)C(F)(F)C(F)(F)C(F)(F)F` get here?
Ans: 0.0

Q: Just curious, what result did `CC1CCCCC1` get here?
Ans: 0.0

Q: Just curious, what result did `CCCC(=O)OCC(COC(=O)CCC)OC(=O)CCC` get here?
Ans: 0.0

Q: Just curious, what result did CCCCOC(=O)C(C)O (stereo not drawn) get here?
Ans: 0.0

Q: Just curious, what result did CCC(C)CO (stereo not drawn) get here?
Ans: 0.0

Q: Just curious, what result did `CC(C)OC(=O)COc1ccc(Cl)cc1Cl` get here?
Ans: 0.0

Q: Just curious, what result did `OCCCCl` get here?
Ans: 0.0

Q: Just curious, what result did `Cc1cccc(C)n1` get here?
Ans: 0.0

Q: Just curious, what result did `Oc1ccc(C2(c3ccc(O)c(C4CCCCC4)c3)CCCCC2)cc1C1CCCCC1` get here?
Ans: 1.0

Q: Just curious, what result did `Nc1cc([N+](=O)[O-])cc(Cl)c1O` get here?
Ans: 0.0

Q: Just curious, what result did `Nc1c(Br)cc([N+](=O)[O-])cc1Br` get here?
Ans: 0.0

Q: Just curious, what result did `O=C(Cl)C(F)(F)C(F)(F)C(F)(F)C(F)(F)C(F)(F)C(F)(F)F` get here?
Ans: 0.0

Q: Just curious, what result did `C[Si](Cl)(Cl)CCC(F)(F)C(F)(F)C(F)(F)C(F)(F)C(F)(F)C(F)(F)F` get here?
Ans: 0.0

Q: Just curious, what result did `CCOC(=O)CCC(C)=O` get here?
Ans: 0.0

Q: Just curious, what result did `O=S(=O)(O)CCC(F)(F)C(F)(F)C(F)(F)C(F)(F)F` get here?
Ans: 0.0

Q: Just curious, what result did OCC(O)CC(F)(F)C(F)(F)C(F)(F)C(F)(F)F (stereo not drawn) get here?
Ans: 0.0

Q: Just curious, what result did `N#Cc1ccccc1O` get here?
Ans: 0.0

Q: Just curious, what result did `CCCCOC(=O)[C@H](C)O` get here?
Ans: 0.0

Q: Just curious, what result did CC(C)=CCCC(C)O (stereo not drawn) get here?
Ans: 0.0

Q: Just curious, what result did COC(F)(C(F)F)C(F)(F)F (stereo not drawn) get here?
Ans: 0.0

Q: Just curious, what result did `FC(F)(F)C(F)(F)C(F)(F)C(F)(F)C(F)(F)C(F)(F)C(F)(F)CCI` get here?
Ans: 0.0

Q: Just curious, what result did `O=C1C=CC(=O)N1c1ccccc1` get here?
Ans: 0.0

Q: Just curious, what result did `CC(C)Nc1ccc(NC(C)C)c2c1C(=O)c1ccccc1C2=O` get here?
Ans: 0.0

Q: Just curious, what result did `CCOCOCC` get here?
Ans: 0.0

Q: Just curious, what result did OCCC(O)CO (stereo not drawn) get here?
Ans: 0.0

Q: Just curious, what result did FC(F)(F)C(F)(F)C(F)(F)CC1CO1 (stereo not drawn) get here?
Ans: 0.0

Q: Just curious, what result did `C[Si](C)O[Si](C)C` get here?
Ans: 0.0

Q: Just curious, what result did `NC(=O)C(F)(F)C(F)(F)C(F)(F)C(F)F` get here?
Ans: 0.0
